System: BT-549 breast
test_protocol: NCI-60 one-dose screen, 48 h
settings: 10 µM unless noted
The panel holds about 83,000 compounds, 20% with a hit somewhere; the sample as a whole holds those more often. Activity calls are given as the source filed them. Rule for the calls: active = growth percent below 10; inactive = the rest.
Parameter call: string, one of true (1) for active, false (0) for inactive

Q: Give the logged outcome of this assay for the following compound: `CCCCCc1c(C)[nH]c(/C=C2\N=C(c3ccc[nH]3)C=C2Oc2ccccc2)c1C`
A: true (1)

Q: Assay outcome for `O=C(/C=C/c1ccc(C(F)(F)F)cc1)c1ccc(Nc2nc(NCCO)nc(NCCO)n2)cc1` : what was it?
A: false (0)

Q: What is the recorded call for this compound in the test? `CC(C)Sc1nc(-c2ccc(Br)cc2)c(C#N)c(N2CCCCC2)n1`
A: false (0)

Q: Recorded call for `COc1cc(/C=C2\SC(N3CCCCC3)=NC2=O)ccc1OCCCCCCOc1ccc(/C=C2\SC(N3CCCCC3)=NC2=O)cc1OC` ?
A: true (1)

Q: What call does the record list for `CSc1nc2nc3c(c(-c4ccc(C)cc4)c2c(=O)[nH]1)CN(C)C/C3=C\c1ccc(C)cc1` ?
A: false (0)

Q: Call for entry `CC[N+](CCCCCCCCCC[N+](CC)(c1ccccn1)c1ccccn1)(c1ccccn1)c1ccccn1` :
A: false (0)

Q: I would be grateful if you could indicate the recorded call for `Cc1n(Cc2ccc3ccccc3c2)cc[n+]1Cc1ccc2ccccc2c1` .
A: true (1)

Q: Tell me the recorded outcome of this test for `O=C(Nc1ccc(Cl)cc1)Nc1ccccc1CNc1nc(Nc2ccc(OCCN3CCCC3)cc2)ncc1Cl` .
A: false (0)

Q: Record lookup: outcome of this test for `COc1ccc2c(c1)C(=Nc1cc(OC)c(OC)c(OC)c1)C(=O)N2` ?
A: false (0)

Q: Given O=C(Oc1ccccc1)C(Br)C(Br)c1ccccc1 (stereo not given) , state the outcome it received in this test.
A: false (0)

Q: Field: outcome | Entry: `COc1ccc(CNC(=O)c2c(C)n([O-])c3cc(F)c(F)cc3[n+]2=O)cc1`
A: false (0)

Q: How was `N#Cc1c(NC(=O)c2ccco2)[n+]([O-])c2ccccc2[n+]1[O-]` classified in this test?
A: false (0)

Q: Which outcome was assigned to `CC(=O)Nc1c(Cl)cc2c(c1Cl)Cc1ccccc1-2` in this test?
A: false (0)

Q: In this assay, the call recorded for CC[C@@H](C)/C=C(C)/C=C/C(=O)c1c(O)c(-c2ccc(O)cc2)cn(OC2CC(=O)CCC(C)OC(=O)CC2O)c1=O (stereo not given in full) was what?
A: false (0)

Q: Could you check what this test reported for `CCCCCN1C(=O)CCC1=O` ?
A: false (0)

Q: Write down the call the test reported for this compound. Item: c1ccc2nc(N/N=C3\CCCCC3C3CCCCC3)ccc2c1 (stereo not given)
A: false (0)

Q: Answer briefly: the call reported for `Cc1cccc2nnc(-c3ccccc3)n12` in this assay.
A: false (0)

Q: What is the recorded call for this compound in the test? `O=C(CSc1ncc(-c2ccccc2)n1-c1ccccc1)Nc1ccc(-c2nc3ccccc3s2)cc1`
A: false (0)

Q: // outcome(item) with item = `O=C(Nc1cccc(-n2cc(-c3ccncc3)c(-c3cc(O)cc(Cl)c3)n2)c1)Nc1ccc(Cl)c(Cl)c1`
A: true (1)

Q: For this compound, state the assay outcome: `c1ccc(COc2ccc(Nc3ncnc4c3cnn4-c3ccccc3)cc2)cc1`
A: false (0)
